Reported GI50 values are given for each entry in this list.
- System: 786-0
- Assay comment: NCI tumour cell line growth inhibition, 48 h
The source made the active and inactive calls. No stated cut-off is given here; in the data, active = GI50 up to about 1.1 µM and inactive = higher.

Below, each entry is followed by its recorded GI50 result.
| Compound | Reported |
| --- | --- |
| O=C1O[C@@H](c2ccccc2)C[C@H]1CN1CCOCC1 | 28.2 µM (inactive) |
| Cc1cc(C)nc(NS(=O)(=O)c2ccc(NC(=O)c3ccc4nc5ccccc5c(Nc5ccc(S(=O)(=O)Nc6nc(C)cc(C)n6)cc5)c4c3)cc2)n1 | > 100 µM (inactive) |
| CC1(C)CC(=O)C2=C(C1)S/C(=C1/SC3=C(S1)C(=O)CC(C)(C)C3)S2 | > 251 µM (inactive) |
| CN(C)c1ccc(/C=N/c2ccc(-c3nc4ccccc4o3)cc2)cc1 | 50.6 µM (inactive) |
| CN(C=O)/C=C/c1cc(O)ccc1O | 18.5 µM (inactive) |

The recorded GI50 for O=[N+]([O-])/C(Cl)=C(\NCCO)C(Cl)=C(Cl)Cl is 45 µM (inactive)

The recorded GI50 for C=C(C)[C@@H]1CC[C@]2(C)CC[C@]3(C)[C@H](CC[C@@H]4[C@@]5(C)CC[C@H](OC(=O)c6ccccc6)C(C)(C)[C@@H]5CC[C@]43C)[C@@H]12 is > 100 µM (inactive)

The recorded GI50 for CC(=O)Nc1ccccc1Sc1ccccc1 is > 100 µM (inactive)

The recorded GI50 for CC(C)C(=O)Nc1nc2c(ncn2C2OC(CO)C(O)C2O)c(=O)[nH]1 (stereo unspecified) is > 100 µM (inactive)

The recorded GI50 for NC(=O)N1N=C2c3ccccc3OC[C@H]2[C@@H]1c1ccccc1 is 5.02 µM (inactive)

The recorded GI50 for CC1(C)C(C#N)=[N+]([O-])C(C)(C)N1O is > 100 µM (inactive)

The recorded GI50 for O=C(O)CCc1ccc2c(c1)CC1(Cc3ccccc3C1)C2 is > 100 µM (inactive)

The recorded GI50 for C=C1C(=O)OC2CC(C)C3CC(O)OC(OCC)C3(C)CC12 (stereo unspecified) is 10.2 µM (inactive)

====

- Tested on: 786-0
- Assay comment: NCI tumour cell line growth inhibition, 48 h
The source made the active and inactive calls. Rule as the data show it: active = GI50 up to about 1.1 µM and inactive = higher.
# output must be one of yes = active, no = inactive

Consider the following illustrative entries.
| Compound | Cat |
| --- | --- |
| COc1ccc(C2=NNC(=O)c3ccccc3N2c2nc(-c3cccs3)nc3cc(OC)c(OC)cc23)cc1 | no |
| O=C1OCC(CN2CCC(n3c(=O)[nH]c4ccccc43)CC2)=C1c1ccccc1 | no |
| CCOC(=O)CC1=N/C(=N/C(=N)N[N+](=O)[O-])SC1 | no |

[in] Which result was noted for this compound in the test: CCOc1ccc(N2C(=O)/C(=C/c3ccc(N(CCC#N)CCC#N)cc3)N=C2c2cc([N+](=O)[O-])ccc2Cl)cc1
[out] no

[in] Which result was noted for this compound in the test: CNc1nc(OC)c2c(n1)n(C)c[n+]2C [HETEROMINE B]
[out] no

[in] Which result was noted for this compound in the test: O=C1N[C@@H](O)[C@@H]2ON=C(c3ccccc3)[C@H]12
[out] no

[in] Which result was noted for this compound in the test: O=S(=O)(O)c1cc(S(=O)(=O)O)c2c(Nc3ccnc4ccccc34)ccc(S(=O)(=O)O)c2c1
[out] no

[in] Which result was noted for this compound in the test: COc1ccc(C2S/C(=C\c3ccc([N+](=O)[O-])cc3)C(=O)N2NC(=O)Cc2ccccc2)cc1 (stereo not drawn)
[out] no

[in] Which result was noted for this compound in the test: CC(=O)O[C@H]1C(=O)[C@@]2(C)C(C(OC(=O)c3ccccc3)[C@]3(O)CC(OC(=O)C(O)C(NC(=O)c4ccccc4)c4cccc(Cl)c4)C(C)=C1C3(C)C)[C@]1(OC(C)=O)CO[C@@H]1C[C@@H]2O (stereo partly drawn)
[out] no

[in] Which result was noted for this compound in the test: COc1ccc2c(c1)CCc1c(-c3n[nH]c4c3CCc3cc(OC)ccc3-4)n[nH]c1-2
[out] no

====

Reported GI50 values are given for each entry in this list.
- Tested on: MDA-MB-435
- Assay comment: NCI tumour cell line growth inhibition, 48 h
The source made the active and inactive calls. Cut-off read from the data, not from the text of the source: active = GI50 up to about 1.1 µM and inactive = higher.

Below, each entry is followed by its recorded GI50 result.
| Compound | Target under test | Reported |
| --- | --- | --- |
| CCCCc1ccc(Nc2nc(SC)c3[nH]cnc3n2)cc1 | MDA-MB-435 | 5.33 µM (inactive) |
| O=c1oc2ccccc2n1CCN1CCCCC1 | MDA-MB-435 | > 100 µM (inactive) |
| CC(C)(C)OC(=O)CCCCCNC(=O)CCCCCNC(=O)CCC(CN(CC(=O)OCc1ccccc1)CC(=O)OCc1ccccc1)N(CC(=O)OCc1ccccc1)CC(=O)OCc1ccccc1 (stereo not drawn) | MDA-MB-435 | > 100 µM (inactive) |
| COc1ccc(C2C3=C(COC3=O)OC(C)(C)Oc3cc4c(cc32)OCO4)cc1OC (stereo not drawn) | MDA-MB-435 | 17.3 µM (inactive) |
| O=C1CN(c2cccc(C(F)(F)F)c2)C(=O)CN1CCN1CC(=O)N(c2cccc(C(F)(F)F)c2)CC1=O | MDA-MB-435 | > 100 µM (inactive) |

The recorded GI50 for Cc1cc(N(CCC#N)CCC#N)ccc1C(=N/NC(=O)c1cc(Cl)ccc1O)/N=N/c1cccc([N+](=O)[O-])c1 is 35.4 µM (inactive)

The recorded GI50 for CCOC(=O)[C@@H]1ON2O[C@H](OC3CCCC3(c3ccccc3)c3ccccc3)C[C@H]3OC(=O)[C@@H]1C32 (stereo partly drawn) is 30.1 µM (inactive)

The recorded GI50 for O=C(/C=C/c1ccc(O)c(O)c1)OCc1ccccc1 [BENZYL CAFFEATE] is 6.27 µM (inactive)

====

- Tested on: NCI-H522
- Assay comment: NCI tumour cell line growth inhibition, 48 h
Activity calls are given as the source filed them. Rule as the data show it: active = GI50 up to about 1.1 µM and inactive = higher.
# output must be one of t = active, f = inactive

Consider the following illustrative entries.
| Molecule | Cat |
| --- | --- |
| C#CN1C(=O)c2c(c(-c3ccccc3)c(-c3ccc(Oc4ccc(-c5c(-c6ccccc6)c6c(c(-c7ccccc7)c5-c5ccccc5)C(=O)N(C#C)C6=O)cc4)cc3)c(-c3ccccc3)c2-c2ccccc2)C1=O | f |
| CNc1ncccc1Nc1cc(=O)n2c3cccnc3n(C)c2c1 | f |

[in] Which result was noted for this molecule in the test: CCOC(=O)C[n+]1ccc2c([nH]c3cc(OC)ccc32)c1C
[out] f

[in] Which result was noted for this molecule in the test: O=Cc1ccc2c(c1-c1c(C=O)ccc3c1OCO3)OCO2
[out] f

[in] Which result was noted for this molecule in the test: O=C(O)CCc1ccc2c(c1)CC1(Cc3ccccc3C1)C2
[out] f

[in] Which result was noted for this molecule in the test: C[N+]1=C2[B-](C(C)(C)C)=[N+](C(C)(C)C)[B-]2(C(C)(C)C)[N+](C)=C2[B-](C(C)(C)C)=[N+](C(C)(C)C)[B-]21C(C)(C)C (centres undefined)
[out] f

[in] Which result was noted for this molecule in the test: C=C1C[C@]23CC[C@@H]4C(CO)(CO)CC(=O)C[C@]4(C)[C@@H]2C(O)C[C@H]1C3 (some centres undefined)
[out] f

====

- Tested on: UACC-62
- Assay comment: NCI tumour cell line growth inhibition, 48 h
Activity calls are given as the source filed them. Cut-off read from the data, not from the text of the source: active = GI50 up to about 1.1 µM and inactive = higher.
Reported GI50 values are given for each entry in this list.

Below, each entry is followed by its recorded GI50 result.
| Compound | GI50 |
| --- | --- |
| O=C(O)CCc1ccc2c(c1)CC1(Cc3ccccc3C1)C2 | > 100 µM (inactive) |
| CN(C)Cc1cc(/N=N/c2ccc(Cl)cc2)cc(CN(C)C)c1O | 13.9 µM (inactive) |
| CC1(C)C(C#N)=[N+]([O-])C(C)(C)N1O | > 100 µM (inactive) |
| COC(=O)C(C)(NC(=O)C(CC(=O)OC(C)(C)C)NC(=O)OC(C)(C)C)c1ccccc1 (stereo unspecified) | > 100 µM (inactive) |
| C=CCOC(=O)C1C2OC3(C(C(=O)OC)=C2C(=O)OC)c2ccccc2CCC13 (stereo unspecified) | > 10 µM (inactive) |
| CC(=O)c1[nH]c(NC(C)C)c(C(=S)Nc2ccccc2)c1N | 23.6 µM (inactive) |

The recorded GI50 for O=c1c2cc3c(cc2[nH]c2ncccc12)OCO3 is > 10 µM (inactive)

The recorded GI50 for CCOC(=O)/C=C1\C[C@H](NC(=O)OCc2ccccc2)C(=O)N1CC(=O)OCC is > 100 µM (inactive)

====

Reported GI50 values are given for each entry in this list.
- System: PC-3
- Assay comment: NCI tumour cell line growth inhibition, 48 h
Calls of active or inactive are those of the source. Rule as the data show it: active = GI50 up to about 1.1 µM and inactive = higher.

Below, each entry is followed by its recorded GI50 result.
| Compound | GI50 |
| --- | --- |
| Cc1ccc([S+]([O-])c2cccs2)cc1 (stereo not given) | > 100 µM (inactive) |
| Clc1ccc(C2=NCON=C2c2ccc(Cl)cc2)cc1 | 18.2 µM (inactive) |

The recorded GI50 for O=C(OCc1ccccc1)N1CCN(C(=O)OCc2ccccc2)CCN(C(=O)OCc2ccccc2)CCN(C(=O)OCc2ccccc2)CCN(C(=O)OCc2ccccc2)CC1 is > 100 µM (inactive)

The recorded GI50 for C=C(Cl)C(Cl)(CBr)CCC(Br)C(C)(C)Br (stereo not given) is 2.31 µM (inactive)

The recorded GI50 for CN(CCCNC(=O)c1cn(C)c2c1ccc1ccccc12)CCCNC(=O)c1cn(C)c2c1ccc1ccccc12 is 1.51 µM (inactive)
